# Test system: A375 cells
# experimentSummary: Tumor cell line proliferation assay (CellTiter Glo), A375
# Assay type: cell-based
# conditionDescription: Homo sapiens, A-375, 96 h, read-out: A375 (V599E) Cell Proliferation IC50
pIC50: −log10 of the molar value.
measuredAttribute: pIC50

Please review the following examples before continuing.
compound | pIC50
O=C1Nc2cc3[nH]nc(-c4cncnc4)c3cc2CN1Cc1cccc(Cl)c1 | 6.00 to 6.60
Cc1cc(-c2n[nH]c3cc4c(cc23)CN([C@@H]2CCCN(Cc3ccc(F)c(F)c3)C2)C(=O)N4)ccn1 | ≥ 6.60
Cc1cc(-c2n[nH]c3cc4[nH]c(=O)n(CCc5ccccc5)c4cc23)ccn1 | < 6.00

// query Report pIC50, nothing else, for this compound: Cc1cc(-c2n[nH]c3cc4c(cc23)CN([C@@H]2CN(C(C)C)C[C@H]2c2ccccc2)C(=O)N4)ccn1 (racemic)
// result ≥ 6.60
